- run-description: Probe fluorescence ratio response to arachidonic acid relative to ADIFAB2
- Format: binding
- condition-description: Table 3; Arachidonic acid
Reported DR/DRAD2 AA by item:
Answer field: number only, no words.

**Query** Fill in the blank: the reported DR/DRAD2 AA of A73I, L72A: FABP probe clone, substitutions A73I, L72A vs SEQ ID NO: 2 (protein, listed as Rattus norvegicus, PEPTIDE (1)...(131) wild-type rat intestinal fatty acid binding protein) AFDGTWKVDRNENYEKFMEKMGINVVKRKLGAHDNLKLTITQEGNKFTVKESSNFRNIDVVFELGVDFAYSAIDGTELTGTWTMEGNKLVGKFKRVDNGKELIAVREISGNELIQTYTYEGVEAKRIFKKE is ____.
**Result** 0.38

**Query** Item L72A: FABP probe clone, substitution L72A vs SEQ ID NO: 2 (protein of ADIFAB2) (protein, listed as Rattus norvegicus, PEPTIDE (1)...(131) wild-type rat intestinal fatty acid binding protein) AFDGTWKVDRNENYEKFMEKMGINVVKRKLGAHDNLKLTITQEGNKFTVKESSNFRNIDVVFELGVDFAYSAADGTELTGTWTMEGNKLVGKFKRVDNGKELIAVREISGNELIQTYTYEGVEAKRIFKKE has what recorded DR/DRAD2 AA?
**Result** 1.12

**Query** Field request: DR/DRAD2 AA | item: L72M: FABP probe clone, substitution L72M vs SEQ ID NO: 2 (protein, listed as Rattus norvegicus, PEPTIDE (1)...(131) wild-type rat intestinal fatty acid binding protein) AFDGTWKVDRNENYEKFMEKMGINVVKRKLGAHDNLKLTITQEGNKFTVKESSNFRNIDVVFELGVDFAYSMADGTELTGTWTMEGNKLVGKFKRVDNGKELIAVREISGNELIQTYTYEGVEAKRIFKKE
**Result** 1.31

All values here come from patent US20060257938A1.
